Biological target: AMP-activated protein kinase, AMPK (Homo sapiens) (UniProt P54646+O43741+P54619+Q9UGJ0+Q9Y478+Q13131+Q9UGI9)
Test: AMP-dependent Kinase enzyme assay. An in vitro enzyme assay that detects ADP turnover that is directly proportional to AMPK activity. This uses naive AMPK that is activated during the assay with MK-8722
Assay type: functional
Parameters: scale not given: direction of the effect not stated beside the values
Conditions: 30 µM
Measurement Label: Percent Effect (%)
# number only, unit % dropped from output

Would you please look over these solved cases?
Query string: Any idea what Percent Effect was measured for `Fc1ccc(CN2CCO[C@H]3[C@H](OCC4CC4)CC[C@@H]32)cc1` ?
Result string: 3.82

Query string: Cool, now `CCCn1ccc(C(=O)N2CCC(C)CC2)n1`
Result string: 1.17

Query string: Let us now turn to COc1ncccc1C(=O)NCC1Cc2ccccc2O1 (centres undefined)
Result string: 2.87

***
Query string: What does the data say about its Percent Effect? Entry: `Cn1cc(NC(=O)Cn2c(CS(C)(=O)=O)nc3ccccc32)cn1`
Result string: 3.88

Query string: Next entry: COc1ccc(C(=O)N2CCCC(C)C2)cc1F (centres undefined)
Result string: -19.3

Query string: What do we get for `COCCCn1ccnc1-c1cnc(OC)nc1` ?
Result string: -3.25

Query string: Now give it for `O=C(CCc1c[nH]cn1)N1CC[C@@H](c2ccc3ccccc3c2)[C@H](O)C1` too.
Result string: -4.75

Query string: Param item: `O=S(=O)(Cc1ccccc1)NCC1CCN(c2cnccn2)CC1`
Result string: 5.37

----------
Species: Homo sapiens
Assay: To identify inhibition of the IFN signalling (Jak-Stat) pathway via expression of an eGFP reporter gene under the control of an IFN-stimulated response element (ISRE) containing MxA promoter.
Format: functional
Design: scale not given: direction of the effect not stated beside the values
Details: 30 µM
Measurement Label: Percent Effect (%)
Expressed in %, but write only the number.

See these solved cases before continuing.
Query string: # input compound: Cc1c(C(=O)NC(CN2CCCC2=O)c2ccccc2)cnn1C (stereo not given) ; wanted: its Percent Effect
Result string: 19

Query string: Field entry: `O=S1(=O)COCCN1Cc1ccc(Cl)c(F)c1`
Result string: 0.549

Query string: What do you have for `O=C(O)c1c[nH]c2cc(NS(=O)(=O)c3cccc(Cl)c3F)ccc12` ?
Result string: 2.38

Query string: Same again, this time with Cc1cc(C2CCCN(C(=O)c3cnn(C)c3)C2)ccn1 (stereo not given)
Result string: -13.7

Query string: Further, for CNC(=O)c1ccc(C2CN(C(=O)c3cncs3)CCO2)nc1 (stereo not given) ?
Result string: -10

Query string: Thanks! And CC(NC(=O)NCCCN(C)C)c1ccc2c(c1)CCC(=O)N2 (stereo not given) ?
Result string: -16.2

Query string: Follow-up item: `CCNc1cc2c(nn1)CCN(C(=O)c1ccnc(N(C)C)c1)C2`
Result string: -24.9

Query string: Follow-up entry: `Cc1noc(C)c1CNC(=O)N1CCC(CO)CC1`
Result string: 23.9

---
Query string: Need Percent Effect of `COc1ccc(Cl)cc1NCC(=O)NCCNc1cnccn1` , thanks.
Result string: -1.56

Query string: Okay, and `CC(C)n1ccnc1CN1CCCN(C(=O)COC2CCCC2)CC1` ?
Result string: 2.51
